Tested system: T1, Nrd1 307-491 K380A (Saccharomyces cerevisiae, UniProt P53617 307-491, K380A)
T1 sequence: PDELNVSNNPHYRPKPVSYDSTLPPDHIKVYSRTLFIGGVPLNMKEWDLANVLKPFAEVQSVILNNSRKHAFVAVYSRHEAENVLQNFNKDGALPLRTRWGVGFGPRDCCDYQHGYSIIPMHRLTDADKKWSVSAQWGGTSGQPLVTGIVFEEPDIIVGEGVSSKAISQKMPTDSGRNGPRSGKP
Assay overview: fluorescence anisotropy; text says binding abolished; FA: 10 nM RNA, 50 mM sodium phosphate pH 8, 150 mM NaCl, 10 mM beta-mercaptoethanol, 20 C (protein stock in 300 mM NaCl); NMR: same buffer with 300 mM NaCl, 20
Measurement conditions: protein: recombinant; tags: C-terminal His6; label: 5' fluorescein or TAMRA (FA); unlabeled (NMR)
Measurement name: Kd (µM)
Give bare numbers, in µM.

Request the reported Kd associated with GUAA (ssRNA) 442
